assaySystem: human LSD1(171-852) (Homo sapiens)
Construct: to give hLSD1(171-852) purified product; made in house; host or cells: Escherichia coli C43(DE3) pLysS
testProtocol: Measurement of LSD1 inhibitory activity (time-resolved fluorescence, biotin-histone H3 mono methylated K4 peptide)
Assay type: biochemical
runParameters: read-out: LSD1 IC50 value
Where a name gives a salt, the structure may show the parent alone.
Reported IC50 by item:

Here are 5 compounds together with their reported answers.
compound	IC50
O=C(Nc1ccc([C@@H]2C[C@H]2NCc2ccccc2F)cc1)c1ccccc1 (relative stereo) [Example 15]	< 100 nM
O=C(Nc1ccc([C@@H]2C[C@H]2NCC2CC2)cc1)c1ccc(-c2ccccc2)o1 (relative stereo) [Example 123]	< 100 nM
O=C(Nc1ccc([C@@H]2C[C@H]2NCc2ccccc2)cc1)c1cccc(N2CCCCC2=O)c1 (relative stereo) [Example 33]	< 100 nM
O=C1c2ccccc2C(=O)N1c1ccc([C@@H]2C[C@H]2NCC2CC2)cc1 (relative stereo) [Example 143, hydrochloride]	< 100 nM
O=C(Nc1ccc([C@@H]2C[C@H]2NCc2ccccc2F)cc1)c1cccc(C(F)(F)F)c1 (relative stereo) [Example 67, hydrochloride]	< 100 nM

Lookup: Could you tell me which IC50 is on file for CS(=O)(=O)Nc1ccc(C(=O)Nc2ccc([C@@H]3C[C@H]3NCC3CC3)cc2)cc1 (relative stereo) [Example 135, hydrochloride] ?
Found: 100 nM
